Consider the following compounds; for each one, report its Population Normal (%).
Test system: HEK-293T
ASSAY_PROCEDURE: Multiplex assay against HEK293T
Assay type: toxicity, cell-based
CONDITION: human, 48 h, 10 µM, compound concentration 10 uM, replicate 1
Form entry: value (%) — number only.

Quick check: Population Normal (%) of `O=C1[C@H](Cc2ccc(O)cc2)N2C(=O)CCN(C(=O)NCc3ccccc3)[C@H]2CN1Cc1cccc2ccccc12` ? 89

Any idea what its Population Normal (%) is? The compound is `CC(C)c1noc(N2CCC(COc3ccc(-c4ccc(S(C)(=O)=O)cc4)nc3)CC2)n1` 89

Given the compound O=C(NCCN1CCC(n2c(=O)[nH]c3cc(Cl)ccc32)CC1)c1ccc(F)cc1 [HALOPEMIDE] , what is its reported Population Normal (%)? 91

May I ask what Population Normal (%) has been recorded for `CC(C)(C)c1cc(NC(=O)Nc2ccc(-c3cn4c(n3)sc3cc(OCCN5CCOCC5)ccc34)cc2)no1` ? 90

Entry `CC[C@@H](C)Nc1nc(C)nc2c(-c3ccc(OC)nc3C)c(C)nn12` has what Population Normal (%)? 92
